- Protocol: Primary qHTS for inhibitors of nuclear receptor binding SET domain protein 2 (NSD2) in an isogenic RCH-ACV NSD2 p.E1099K mutant (9B) (AID 1645876); note: nearly all actives have a fitted effect of over 70% in size
- Settings: RCH-ACV (leukaemia line) NSD2 E1099K (9B) viability, CellTiter-Glo, 72 h; series mostly up to 44.9 µM
Records with an inconclusive call do not appear. Active and inactive are the calls of the source. Calls come from the whole dose curve; as a rule, active = well fitted inhibition curve with a large enough effect; inconclusive = small, poorly fitted or top-dose-only effect; inactive = flat fitted curve, though single readings scatter.
Write down one outcome, taken from active, inactive

// return assay outcome for `C[C@@H]1CC[C@@]2(OC1)O[C@H]1C[C@H]3[C@@H]4CC=C5C[C@@H](O)CC[C@]5(C)[C@H]4CC[C@]3(C)[C@H]1[C@@H]2C`
inactive

Hi team, can someone confirm the assay call for CNC(=O)c1ccccc1Nc1nc(Nc2ccc3c(c2OC)CCCC(N2CCN(CCO)CC2)C3)ncc1Cl (stereo not given) ?
active

Any idea what this test logged for O=C1CCC=CC1(O)C(=O)OCc1ccccc1O[C@@H]1O[C@H](CO)[C@@H](O)[C@H](O)[C@H]1O (stereo not given in full) ?
active

Please indicate how the test categorized CC1=C(C)C(=O)OC(C(C)C2CCC3C4C5OC5C5(O)CC(OC6OC(CO)C(OC7OC(C)C(O)C(O)C7O)C(O)C6O)CC(O)C5(C)C4CCC23C)C1 (stereo not given) .
inactive

Status in this test for `COc1ccc(/C=C/C(=O)O[C@@H]2[C@@H](O)[C@@H](O)[C@H](O[C@@H]3C=C(CO)[C@H]4[C@H](O[C@@H]5O[C@H](CO)[C@@H](O)[C@H](O)[C@H]5O)OC=C[C@H]43)O[C@H]2C)cc1O` ?
inactive

So what was the verdict on O=C1NC(Cc2c[nH]c3ccccc23)C(=O)NC1Cc1c[nH]c2ccccc12 (stereo not given) in this test?
inactive

Each compound tested received a call. Report the one for `CNC(=O)c1ccccc1Nc1cc(Nc2ccc(N3CCOCC3)cc2OC)ncc1C(F)(F)F` .
active

Which result was noted for this compound in the test: CC1CC(O)C2(OC1=O)OC1C(O)C3C4CCC5CC(OC6OC(CO)C(O)C(O)C6OC6OC(C)C(O)C(O)C6O)CCC5(C)C4CCC3(C)C1C2C (stereo not given)
inactive

Tell me the recorded outcome of this test for `O=C(O)c1cccc(S(=O)(=O)N2CCc3ccccc3C2)c1` .
inactive

Answer briefly: the call reported for C=C(C)C1Cc2cc(C(=O)OC3OC(CO)C(O)C(O)C3O)ccc2O1 (stereo not given) in this assay.
inactive

Short answer needed: outcome of this test for `C/C=C/c1cc(OC)c2c(c1)[C@@H](C)[C@@H](c1ccc(O)c(OC)c1)O2` ?
active

# fetch the recorded call for `CO[C@H]1/C=C/[C@@](C)(O)/C=C/C(=O)O[C@H](C)[C@@H](C)CC/C=C/1C` here
active

Called result for Cc1cc2c(F)c(Oc3ncnn4cc(OCC(C)O)c(C)c34)ccc2[nH]1 (stereo not given)
active

Hey, what did the test say about `C[C@]12C[C@@H](O)[C@@H]3C[C@@]1(O[C@@H]1O[C@H](CO)[C@@H](O)[C@H](O)[C@H]1O)[C@]3(COC(=O)c1ccccc1)C(=O)O2` ?
inactive

Hi, do you know how CC1(C)CC[C@]23CO[C@@]4(CCC5[C@@]6(C)CC[C@H](O[C@@H]7OC[C@H](O[C@@H]8O[C@H](CO)[C@@H](O)[C@H](O)[C@H]8O)[C@H](O)[C@H]7O[C@@H]7O[C@H](CO)[C@@H](O[C@@H]8O[C@H](CO)[C@@H](O)[C@H](O)[C@H]8O)[C@H](O)[C@H]7O)[C@@](C)(CO)C6CC[C@@]5(C)[C@]4(C)C[C@H]2OC2OCC(O)C(O)C2O)C3C1 (stereo not given in full) came out in this test?
active

Per the records of this test, what outcome belongs to C[C@@H]1CC[C@]2(C(=O)O[C@@H]3O[C@H](CO)[C@@H](O)[C@H](O)[C@H]3O)CC[C@]3(C)C(=CCC4[C@@]5(C)C[C@@H](O)[C@H](O)[C@](C)(C(=O)O)C5CC[C@]43C)[C@@H]2[C@]1(C)O (stereo not given in full) ?
inactive

Which outcome was assigned to CC(=O)O[C@@H]1C[C@H](O)[C@@]23CO[C@H](O)[C@]1(C)C2C[C@@H](O)[C@]1(C)C3C(=O)[C@H](OC(C)=O)[C@@]2(C)[C@H](c3ccoc3)C[C@H]3O[C@]321 (stereo not given in full) in this test?
active

What did the test return for `CC(=O)O[C@@H]1c2c(C)coc2C(=O)[C@@]23O[C@@H]2CC[C@H](C)[C@@]13C` ?
inactive

Tell me the assay call for `C=C1C[C@]23C[C@H]1CC[C@H]2C1=C[C@H]2OC(=O)[C@@](C)([C@H]1[C@@H]3C(=O)O)[C@H]2O` please.
inactive

I'd appreciate the recorded outcome for `NCCCNc1ccc(Nc2nccc(Nc3cc(C4CC4)[nH]n3)n2)cc1` from this test.
active
